Target Entity: 5-HT2C receptor (Homo sapiens)
Test Method Notes: Inverse agonist reduction of basal 5-HT2C-mediated IP production
Type: cell-based
Condition Context: CHO-K1 cells; basal 5-HT2C-mediated IP production after 20 h of vehicle; n = 3
Measurement Kind: Imax (% decrease from basal), inositol phosphate reduction
Give the value, in units of % decrease from basal, as a plain number.

Give the measured Imax (% decrease from basal), inositol phosphate reduction of Cn1ccc2cc3c(cc21)CCN3C(=O)Nc1cccnc1 [SB 206553] .
32

Entry CN(C)[C@@H]1Cc2ccccc2[C@@H](C2CCCCC2)C1 (relative stereo) [CAT] please
26

Entry CN(C)[C@@H]1Cc2ccccc2[C@@H](c2cccc(C(F)(F)F)c2)C1 (relative stereo) [MFP] please
25

Entry CN1C[C@@H](NS(=O)(=O)N(C)C)C[C@@H]2c3cccc4c3c(cn4C)C[C@H]21 [mesulergine] please
17

---

Target Entity: UniProt P28335
Test Method Notes: DiscoverX PathHunter β-arrestin recruitment to the 5-HT2C receptor
Assay type: cell-based
Condition Context: U2OS cells stably expressing 5-HT2C-INI; agonist 2 h; n = 3
Marks after values point to notes of the source that are not given here.
Consider the following compounds; for each one, report its Emax (% 5-HT), β-arrestin recruitment.

Give the measured Emax (% 5-HT), β-arrestin recruitment of "O=C1CCc2ccc(OCCCCN3CCN(c4cccc(Cl)c4Cl)CC3)cc2N1" .
8 ± 1^a % 5-HT

Entry "C[C@H]1CNCCc2ccc(Cl)cc21" please
118 ± 5^a % 5-HT

Entry CN(C)[C@@H]1Cc2ccccc2[C@@H](c2cccc(Br)c2)C1 (relative stereo) please
7 ± 4^a % 5-HT

Entry "C[C@H](N)Cn1ccc2cc(F)c(Cl)cc21" please
92 ± 4 % 5-HT

---

Target Entity: human 5-HT2C–INI (wild-type, WT) receptor (Homo sapiens)
Sequence (P28335 33-458): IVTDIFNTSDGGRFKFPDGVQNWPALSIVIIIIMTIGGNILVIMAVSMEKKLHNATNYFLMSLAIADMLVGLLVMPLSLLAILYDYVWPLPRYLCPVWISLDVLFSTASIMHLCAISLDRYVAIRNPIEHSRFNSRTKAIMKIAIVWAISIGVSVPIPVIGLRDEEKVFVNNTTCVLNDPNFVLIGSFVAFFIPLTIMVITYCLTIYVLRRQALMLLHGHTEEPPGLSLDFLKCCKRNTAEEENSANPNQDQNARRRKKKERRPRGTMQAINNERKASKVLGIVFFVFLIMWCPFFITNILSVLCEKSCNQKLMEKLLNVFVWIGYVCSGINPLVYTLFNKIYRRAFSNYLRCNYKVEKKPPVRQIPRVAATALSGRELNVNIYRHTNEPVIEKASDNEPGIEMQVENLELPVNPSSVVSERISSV
Assay type: cell-based
Consider the following molecules; for each one, report its pEC50, inositol phosphate production.

Give the measured pEC50, inositol phosphate production of COc1cc(CC(C)N)c(OC)cc1I (racemic) [DOI, (±) 2,5-dimethoxy-4-iodoamphetamine] .
8.32 ± 0.10

Entry O=C1Nc2cc(Cl)c(Cl)cc2N2CCNCC12 (stereo not shown) please
8.07 ± 0.08

Entry "C[C@H](N)Cn1ccc2cc(F)c(Cl)cc21" please
8.30 ± 0.05

Entry CN(C)[C@@H]1Cc2ccccc2[C@@H](c2cccc(Br)c2)C1 (relative stereo) please
7.76 ± 0.04
